- method-summary: Resorption of octreotide after injection of a solution into the jejunum of anaesthetised rats; plasma concentration by radio-immunoassay
- Type: in vivo, Wistar rats
- experimental-conditions: Wistar, rat, plasma, 100 microg., octreotide in plasma; area under the curve over 2 hours; 0.5 ml of NaCl (0.9 % W/V) solution injected into the jejunum; sem in the next column; read-out: AUCo² mean
value-kind: AUC(0-t)
Give me the value, and tack the unit on after it.

*Q* Entry C[C@@H](O)[C@@H]1NC(=O)[C@H](CCCCN)NC(=O)[C@@H](Cc2c[nH]c3ccccc23)NC(=O)[C@H](Cc2ccccc2)NC(=O)[C@@H](NC(=O)[C@H](N)Cc2ccccc2)CSSC[C@@H](C(=O)N[C@H](CO)[C@@H](C)O)NC1=O [100 microg. of octreotide (reference), Octreotide] : reported AUC(0-t) = ?
*A* 2.26 ng·h/mL

###

- method-summary: Resorption of octreotide after injection of a solution into the jejunum of anaesthetised rats; plasma concentration by radio-immunoassay
- Format: in vivo, Wistar rats
- experimental-conditions: Wistar, rat, 100 microg.; octreotide in plasma; 0.5 ml of NaCl (0.9 % W/V) solution injected into the jejunum; sem in the next column
- Protocol: Wistar rats (about 300 g body weight) were fasted for 12 hours and anaesthetised with urethane (2 doses of […] i.p.). The abdomen was opened to gain access to the gastrointestinal tract in particular the jejunum. […] The blood is centrifuged and the somatostatin concentration in the plasma determined in conventional manner using a radio-immunoassay method. […]
value-kind: Cmax

*Q* Which Cmax is reported for this molecule? C[C@@H](O)[C@@H]1NC(=O)[C@H](CCCCN)NC(=O)[C@@H](Cc2c[nH]c3ccccc23)NC(=O)[C@H](Cc2ccccc2)NC(=O)[C@@H](NC(=O)[C@H](N)Cc2ccccc2)CSSC[C@@H](C(=O)N[C@H](CO)[C@@H](C)O)NC1=O [100 microg. of octreotide (reference), Octreotide]
*A* 2.23 ng/mL
